- Protocol Summary: Inhibitory activity against peptide binding to the RRE RNA was determined
Readout Type: pIC50
Just the number, please; pIC50 means minus log10 of the concentration in mol/L.

q: // fetch pIC50 given entry N=C(N)NCCCC(N)C(=O)NCC1OC(OC2C(N)CC(N)C(O)C2O)C(N)C(O)C1O (stereo unspecified)
a: 6.34

----------
- Protocol Summary: Dissociation constant for TAR RNA
pKd values by entry
Just the number, please; pKd means minus log10 of the concentration in mol/L.

Compound: NC1CC(N)C(OC2OC(CNC(=O)c3ccc4ccc5cccc6ccc3c4c56)C(O)C(O)C2N)C(O)C1O (configuration not stated)
pKd: 6.54

Then this compound:
q: // fetch pKd given entry N=C(N)NCCCC(NC(=O)c1ccc2ccc3cccc4ccc1c2c34)C(=O)NCC1OC(OC2C(N)CC(N)C(O)C2O)C(N)C(O)C1O (configuration not stated) [Neamine derivative]
a: 7.52

Cited source for all entries: BindingDB's records for doi:10.1016/s0960-894x(01)00005-1
